The reported measurements were obtained from patent US20250382344A1.

In this section we review reported EC50, CreLuc reporter, 0.5% hP values for a set of binders.
biological target: human GLP-1 receptor (human, UniProt P43220 24-463); assay: cell-based or functional assay
Only the number, expressed in nM, is required.

Example entries and their recorded answers appear below.
[
  {
    "Binder": "YXEGTFTSDYSIELEKQAQXAFVRHLINKXTRQRY (Aib at 2, 20, 30; Lys29 epsilon-amino: C18DA-gGlu-gGlu-gGlu-gGlu-gGlu-gGlu-eLys; C-terminal amide) [Compound 160]",
    "EC50, CreLuc reporter, 0.5% hP, nM": 7.1
  },
  {
    "Binder": "YXEGTFTSDYSIXLEKQAQXAFIRHLINKXTRQRY (Aib at 2, 13, 20, 30; Lys29 epsilon-amino: C18DA-gGlu-gGlu-gGlu-gGlu-gGlu-gGlu-eLys; C-terminal amide) [Compound 88]",
    "EC50, CreLuc reporter, 0.5% hP, nM": 0.2
  }
]

What does the data say about its EC50, CreLuc reporter, 0.5% hP? Entry: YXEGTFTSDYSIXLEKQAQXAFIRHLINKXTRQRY (Aib at 2, 13, 20, 30; Lys29 epsilon-amino: C20DA-gGlu-gGlu-gGlu-gGlu-gGlu-gGlu-eLys; C-terminal amide) [Compound 109]
0.8
